test system: influenza A/California/07/2009 (H1N1); assay: microbe, parasite or virus in culture; type: cell-based, Influenza A Virus; settings: Influenza A virus, H1N1; control antiviral, single data points, A549 cells, 48 hours; read-out: IC50, IAV Antiviral Assay
observed property: IC50 (pM)
Give bare numbers, in pM.

Qu. I am curious: what IC50 value has been reported for `O=C1c2c(O)c(=O)ccn2N([C@@H]2c3ccccc3SCc3c2ccc(F)c3F)[C@@H]2COCCN12` ?
Ans. 490
